# ASSAY_PROCEDURE: Cell Viability - LYMP2-026 (AID 989);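 note: cells exposed to compound for 24 h at 37 °C; nearly all actives have a fitted effect of over 50% in size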
# CONDITION_PARAMETERS: LYMP2-026 lymphoblastoid cell viability, qHTS; series mostly up to 92.2 µM
Results filed as inconclusive are left out. Activity calls are given as the source filed them. Calls come from the whole dose curve; as a rule, active = well fitted cell-killing curve with a large enough effect; inconclusive = small, poorly fitted or top-dose-only effect; inactive = flat fitted curve, though single readings scatter.
QUANTITY_KIND: outcome

# count of solved cases: 4
MOLECULE: N#CC(Br)Br
QUANTITY_KIND: outcome
RESULT: inactive
--
MOLECULE: COC(=O)Nc1nc2ccccc2[nH]1
QUANTITY_KIND: outcome
RESULT: inactive
--
MOLECULE: CC(C#N)CCC#N (stereo not given)
QUANTITY_KIND: outcome
RESULT: inactive
--
MOLECULE: Nc1ccc(Cl)c(Cl)c1
QUANTITY_KIND: outcome
RESULT: inactive

Noted for `O=C(O)CCl` : its outcome reads inactive

====

# ASSAY_PROCEDURE: Cell Viability - LYMP2-009 (AID 968);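 note: cells exposed to compound for 24 h at 37 °C; nearly all actives have a fitted effect of over 55% in size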
# CONDITION_PARAMETERS: LYMP2-009 lymphoblastoid cell viability; series mostly up to 92.2 µM
Results filed as inconclusive are left out. Calls of active or inactive are those of the source. Calls follow the shape of the dose curve; as a rule, active = well fitted cell-killing curve with a large enough effect; inconclusive = small, poorly fitted or top-dose-only effect; inactive = flat fitted curve, though single readings scatter.
Use one of these outcomes when replying: active, inactive

These solved cases illustrate the format of a correct answer.
COMPOUND: ClC(Br)Br
CLASS_NAME: inactive

COMPOUND: Clc1ccc(C(Cl)(Cl)Cl)c(Cl)c1
CLASS_NAME: inactive

COMPOUND: ClP(Cl)(Cl)(Cl)Cl
CLASS_NAME: inactive

COMPOUND: COc1c(C(C)(C)C)cc([N+](=O)[O-])c(C)c1[N+](=O)[O-]
CLASS_NAME: inactive

Prompt: For `CC(C)(C)OOC(=O)c1ccccc1` , what call appears in the results of this test?
Response: inactive

Prompt: For `O=S(=O)(O)F` , what call appears in the results of this test?
Response: inactive

Prompt: For NC1CCC(CC2CCC(N)CC2)CC1 (stereo not drawn) , what call appears in the results of this test?
Response: inactive

Prompt: For `CN(C)C(=O)Cl` , what call appears in the results of this test?
Response: inactive

Prompt: For `CC(=O)CCC(C)=O` , what call appears in the results of this test?
Response: inactive

Prompt: For `ClCc1ccccc1` , what call appears in the results of this test?
Response: inactive

Prompt: For `Oc1cc(Cl)cc(Cl)c1` , what call appears in the results of this test?
Response: inactive

Prompt: For `Cc1ccc2c(C)cccc2c1` , what call appears in the results of this test?
Response: inactive

Prompt: For `Nc1cccc(Cl)c1` , what call appears in the results of this test?
Response: inactive

Prompt: For CC1CC(=O)O1 (stereo not drawn) , what call appears in the results of this test?
Response: inactive

Prompt: For `C=CC(=O)OCC(C)C` , what call appears in the results of this test?
Response: inactive

Prompt: For `N#C/C=C/C#N` , what call appears in the results of this test?
Response: active

Prompt: For `Brc1cccc(-c2ccccc2)c1` , what call appears in the results of this test?
Response: inactive

Prompt: For CCOC(=O)C1OC1(C)c1ccccc1 (stereo not drawn) , what call appears in the results of this test?
Response: inactive

Prompt: For `Cc1cc(N=Nc2ccccc2C)ccc1N` , what call appears in the results of this test?
Response: inactive

Prompt: For `O=Cc1ccc2c(c1)OCO2` , what call appears in the results of this test?
Response: inactive

Prompt: For `CC(C)[N+](=O)[O-]` , what call appears in the results of this test?
Response: inactive
